# Experiment description: NCI Yeast Anticancer Drug Screen. Data for the cln2 rad14 strain (AID 165);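 note: 0% = growth equal to vehicle treated cultures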
# Condition label: S. cerevisiae cln2 rad14 strain, at 50.0 µM, active compounds read high
The panel holds about 79,000 compounds, 15% with a hit somewhere; the sample as a whole holds those more often.
Measured quantity: growth inhibition (%)
Give just the number in %; leave the unit off.

Examples with answers:
compound="NC(Cc1cc(I)c(O)c(I)c1)C(=O)O (stereo unspecified)" measured_quantity="growth inhibition" unit_abbrev=% endpoint_value=8.2
compound="S=C1CC(c2ccccc2)Sc2ccccc2N1 (stereo unspecified)" measured_quantity="growth inhibition" unit_abbrev=% endpoint_value=1.8
compound=COc1c(NC(=O)c2ccccc2Cl)cccc1[N+](=O)[O-] measured_quantity="growth inhibition" unit_abbrev=% endpoint_value=-6.75
compound="CC(C(=O)c1ccccc1)C(c1ccccc1)N1CCOCC1 (stereo unspecified)" measured_quantity="growth inhibition" unit_abbrev=% endpoint_value=3.25
compound=Cc1[nH]n(C2=NCCN2)c(=O)c1Cc1ccccc1 measured_quantity="growth inhibition" unit_abbrev=% endpoint_value=-26.3
compound=CCc1n[nH]c(=O)n1N1C(=O)CCC1=O measured_quantity="growth inhibition" unit_abbrev=% endpoint_value=5.4

Q) Look up growth inhibition of CC(=O)OC1CCC2(C)C(=CCC3C2CCC2(C)C(/C(C)=N/NC(N)=O)CCC32)C1 (stereo unspecified) and report it.
A) -39.6

Q) Look up growth inhibition of CC(=O)c1cccc2c(C(C)=O)cccc12 and report it.
A) -20.1

Q) Look up growth inhibition of CN(C)C(=O)CC(O)c1ccccc1 (stereo unspecified) and report it.
A) -30.2

Q) Look up growth inhibition of Cc1ccc(S(=O)(=O)NC2C(=O)c3ccccc3C(=O)C2n2ccnc2)cc1 (stereo unspecified) and report it.
A) 2.75

====

# Experiment description: NCI Yeast Anticancer Drug Screen. Data for the cln2 rad14 strain (AID 165);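 note: 0% = growth equal to vehicle treated cultures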
# Condition label: S. cerevisiae cln2 rad14 strain, at 50.0 µM, active compounds read high
About 79,000 compounds went through this panel and 15% of them were active in at least one assay; those are over-represented in the sample as a whole.
Measured quantity: growth inhibition (%)
Give just the number in %; leave the unit off.

Examples with answers:
compound=CCOC(=O)/C=C(/C)N(CC)CC unit_abbrev=% endpoint_value=11.3
compound=C/C(=C\C(C)(C)c1ccccc1)c1ccccc1 unit_abbrev=% endpoint_value=-8.35

Q) Look up growth inhibition of CNC(=O)OCc1c(COC(=O)NC)c(-c2ccc(S(C)(=O)=O)cc2)n(C)c1C and report it.
A) 5.25

Q) Look up growth inhibition of CCN(CC)CCC(=O)N1C/C(=C/c2ccccc2)C(=O)/C(=C\c2ccccc2)C1 and report it.
A) 30.6

Q) Look up growth inhibition of CCOC(=O)NC(Nc1ncccn1)(C(=O)OCC)C(F)(F)F (stereo not drawn) and report it.
A) -15.6

Q) Look up growth inhibition of Cc1cc(NS(=O)(=O)c2ccc(N=[N+]([O-])c3ccc(S(=O)(=O)Nc4cc(C)on4)cc3)cc2)no1 and report it.
A) 4.7

====

# Experiment description: NCI Yeast Anticancer Drug Screen. Data for the mlh1 rad18 strain (AID 175)
# Condition label: S. cerevisiae mlh1 rad18 strain growth inhibition; at 50.0 µM; active compounds read high
About 79,000 compounds went through this panel and 15% of them were active in at least one assay; those are over-represented in the sample as a whole.
Is growth inhibition at least 10%? Then True. If not, False.

# count of solved cases: 6
compound="CC(C)CC(=O)OC1CCCCC1C1CCCCC1 (stereo not drawn)" class=False
compound="CC1CC=C2CCCCC2(C)C1C (stereo not drawn)" class=False
compound=N#[N+]c1ccc2c(c1)C(=O)c1ccccc1-2 class=False
compound=COc1cnc(NS(=O)(=O)c2ccc(N)cc2)nc1 class=False
compound=[N-]=[N+]=Nc1c(Cc2ccccc2)c(Cl)nc2ccccc12 class=True
compound="CCCCS(=O)CC(CO)NC(=O)/C=C/c1c(C)[nH]c(=O)[nH]c1=O (stereo not drawn)" class=True

Q) Check if growth inhibition >= 10% (inclusive). Item: CC(=O)/C=C\C(=O)NNS(=O)(=O)c1ccc(C)cc1
A) True

Q) Check if growth inhibition >= 10% (inclusive). Item: NNc1nc2ccc([N+](=O)[O-])cc2s1
A) True

Q) Check if growth inhibition >= 10% (inclusive). Item: Cc1c(/C=N/N(C)C)oc2c1cc(O)c1ncccc12
A) False

Q) Check if growth inhibition >= 10% (inclusive). Item: CC(C)C(N)C(=O)NC(C(=O)O)C(C)C (stereo not drawn)
A) True

Q) Check if growth inhibition >= 10% (inclusive). Item: Clc1ccc(CSC2=NCCN2)cc1Cl
A) True

Q) Check if growth inhibition >= 10% (inclusive). Item: Cc1nc2ccccc2n1C(=O)c1c(F)c(F)c(F)c(F)c1F
A) False

====

# Experiment description: NCI Yeast Anticancer Drug Screen. Data for the mec2-1 strain (AID 157)
# Condition label: S. cerevisiae mec2-1 strain, at 50.0 µM, active compounds read high
Compounds without any hit were thinned out: in the full panel of roughly 79,000, 15% have a hit.
Below is a list of entries, each paired with its recorded growth inhibition value.
Give just the number in %; leave the unit off.

compound=COc1cc(C(=O)Nc2ccc(N3CCCCC3)cc2)cc(OC)c1OC measured_quantity="growth inhibition" endpoint_value=9.2
compound=CCN(CCOC(=O)Nc1ccc(Cl)cc1)C(=O)Nc1ccc(Cl)cc1 measured_quantity="growth inhibition" endpoint_value=-36.8
compound=O/N=C/C(=Nc1ccc2ccccc2c1)NO measured_quantity="growth inhibition" endpoint_value=3.25
compound=COc1ccc(NC(=O)CC(=O)n2nc(-c3ccccc3)c(N=Nc3ccccc3C)c2-c2ccccc2)cc1 measured_quantity="growth inhibition" endpoint_value=-2.1
compound="Cc1c2ccccc2nc(CSCC(O)CO)[n+]1[O-] (configuration not stated)" measured_quantity="growth inhibition" endpoint_value=10.7
compound=CC(=O)OCCS(=O)(=O)c1c(Cl)c(Cl)c(Cl)c(Cl)c1Cl measured_quantity="growth inhibition" endpoint_value=97.4
compound=CCCNc1nc(Cl)nc2c1cnn2C measured_quantity="growth inhibition" endpoint_value=-8.4
compound=CNCc1cccs1 measured_quantity="growth inhibition" endpoint_value=-9.7

Next compound, growth inhibition to be filled in.
Q) Look up growth inhibition of C/C(CCn1[nH]c(=O)ccc1=O)=N\OCCCc1ccccc1 and report it.
A) -27.6

====

# Experiment description: NCI Yeast Anticancer Drug Screen. Data for the sgs1 mgt1 strain (AID 161);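 note: 0% = growth of cultures given vehicle only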
# Condition label: S. cerevisiae sgs1 mgt1 strain, at 50.0 µM, active compounds read high
About 79,000 compounds went through this panel and 15% of them were active in at least one assay; those are over-represented in the sample as a whole.
Measured quantity: growth inhibition (%)
Give just the number in %; leave the unit off.

compound=O=C(/C=C/c1ccccc1)/C=N/N1C(=S)N(c2ccccc2)C(=Nc2ccccc2)C1=Nc1ccccc1 endpoint_value=-12.9
compound="N#CC(c1ccccc1)C(C#N)c1ccc(Cl)cc1 (stereo unspecified)" endpoint_value=-1.35

Q) Look up growth inhibition of Cc1nc2ccc(Cl)cc2c(Cl)c1CCCl and report it.
A) -19.9

====

Below is a list of entries, each paired with its recorded growth inhibition value.
# Experiment description: NCI Yeast Anticancer Drug Screen. Data for the cln2 rad14 strain (AID 165);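 note: 0% = growth equal to vehicle treated cultures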
# Condition label: S. cerevisiae cln2 rad14 strain, at 50.0 µM, active compounds read high
Compounds without any hit were thinned out: in the full panel of roughly 79,000, 15% have a hit.
Give just the number in %; leave the unit off.

molecule="CCC(O)(c1ccc(O)cc1)C(O)(CC)c1ccc(O)cc1 (centres undefined)" unit_abbrev=% endpoint_value=5.55
molecule=CCc1cc(C(=O)NN)c2ccccc2n1 unit_abbrev=% endpoint_value=-18.4
molecule=COc1c(NC(=O)c2cccc(C(=O)Nc3cccc([N+](=O)[O-])c3OC)c2)cccc1[N+](=O)[O-] unit_abbrev=% endpoint_value=-49.1
molecule="COCCNC(c1ccccc1)C(O)c1ccccc1 (centres undefined)" unit_abbrev=% endpoint_value=-33
molecule=Cc1onc(-c2c(Cl)cccc2Cl)c1C(=O)Nc1ccc(Cl)c(Cl)c1Cl unit_abbrev=% endpoint_value=12.1
molecule="CC1(C)C[C@H](OC2CCCCO2)[C@H]2O[C@@]2(C)C1 (some centres undefined)" unit_abbrev=% endpoint_value=1.1

Q) Look up growth inhibition of CN(Cc1ccc(Cl)cc1)C(=O)Nc1ccccc1Cl and report it.
A) 7.35

Q) Look up growth inhibition of NC(=S)N1CC=CCC1 and report it.
A) 7.95

Q) Look up growth inhibition of Cc1nn(C)c2c1C(=O)N(C)CC(=O)N2C and report it.
A) -14.2

Q) Look up growth inhibition of COc1cc(NCCCCCCNCC(C)C)c2nccc(C)c2c1 and report it.
A) 18.1

Q) Look up growth inhibition of CC(=O)OCC(OC(C)=O)C(OC(C)=O)C(/C=C/[N+](=O)[O-])OC(C)=O (centres undefined) and report it.
A) -24.6

Q) Look up growth inhibition of Nc1c(I)cc([N+](=O)[O-])cc1I and report it.
A) -16.4

Q) Look up growth inhibition of CCNc1nnc(-c2nsc3ccccc23)s1 and report it.
A) -11.5

Q) Look up growth inhibition of CSc1nc(NC2OC(CO)C(O)C(O)C2O)c(I)c(=O)n1C (centres undefined) and report it.
A) -6.25
